- reported_conditions: fish
assay_endpoint: log10 biotransformation half-life (days)

- molecule: "Clc1ccc(-c2ccc(Cl)c(Cl)c2)c(Cl)c1"
  observed_result: 2.07
- molecule: "CC(=CC(C)(C)C)CC(C)(C)C"
  observed_result: 0.7
- molecule: "Clc1cc2oc3c(Cl)c(Cl)c(Cl)cc3c2cc1Cl"
  observed_result: 1.36
- molecule: "CCCCCC(C)CCCC(C)C (centres undefined)"
  observed_result: 1.02
- molecule: "Cc1cccc2c1ccc1ccccc12"
  observed_result: 0.63
- molecule: "Clc1cc(Cl)c(Cl)c(-c2ccccc2Cl)c1"
  observed_result: 2.8
- molecule: "Clc1ccccc1-c1c(Cl)ccc(Cl)c1Cl"
  observed_result: 2.38
- molecule: "OC(c1ccc(Cl)cc1)(c1cncnc1)c1ccccc1Cl (centres undefined)"
  observed_result: 0.57
- molecule: "Clc1cc(Cl)c(Oc2cc(Cl)c(Cl)cc2Cl)cc1Cl"
  observed_result: 1.98
- molecule: "N#Cc1cccc(C#N)c1"
  observed_result: -0.62
- molecule: "O=[N+]([O-])c1ccccc1"
  observed_result: -0.93
- molecule: "CCCCC(CC)COP(=O)(Oc1ccccc1)Oc1ccccc1 (centres undefined)"
  observed_result: -0.15
- molecule: "CC(C)(c1ccc(O)cc1)c1ccc(O)cc1"
  observed_result: 0.27
- molecule: "O=[N+]([O-])c1ccc(Oc2c(Cl)cc(Cl)cc2Cl)cc1"
  observed_result: 0.75
- molecule: "COP(=S)(OC)Oc1ccc([N+](=O)[O-])cc1"
  observed_result: 0.55
- molecule: "c1ccc2c(c1)ccc1cc3c(ccc4ccccc43)cc12"
  observed_result: 0.21
- molecule: "Clc1cc(Cl)c(-c2c(Cl)c(Cl)c(Cl)c(Cl)c2Cl)c(Cl)c1Cl"
  observed_result: 2.66
- molecule: "Cc1ccc(-c2ccc(C)c(C)c2)cc1C"
  observed_result: -0.01
- molecule: "COC(C)(C)C"
  observed_result: -0.88
- molecule: "C1CCCCC1"
  observed_result: -0.66
- molecule: "CCc1cc(C(C)(C)C)c(O)c(C(C)(C)C)c1"
  observed_result: 0.86
- molecule: "CC(C)(C)OOC(C)(C)CCC(C)(C)OOC(C)(C)C"
  observed_result: 0.77
- molecule: "Clc1c(Cl)c(Cl)c2ccccc2c1Cl"
  observed_result: 1.2
- molecule: "CC(C)c1cccc(C(C)C)c1"
  observed_result: 0.56
- molecule: "Clc1cc(Cl)c(Cl)c(-c2c(Cl)c(Cl)c(Cl)c(Cl)c2Cl)c1Cl"
  observed_result: 2.63
- molecule: "CN(C)C(=S)SSC(=S)N(C)C"
  observed_result: -1.18
- molecule: "CC1=CC(=O)CC(C)(C)C1"
  observed_result: -1.29
- molecule: "O=[N+]([O-])c1c(Cl)cc(Cl)cc1Cl"
  observed_result: 0.71
- molecule: "Cc1ccccc1O"
  observed_result: -0.52

Hello, the source for this data is the OPERA property sets (Mansouri et al. 2018), in case you need it.
